# targetSystem: endoplasmic reticulum aminopeptidase 1 (ERAP1), ancestral reference sequence NP_057526 (human, UniProt Q9NZ08-2 1-948)
# assayExplanation: enzyme kinetics
readoutKind: Ki (µM)
Response body: numeric value in µM, unit text excluded.

Answer with reported Ki of YKRFEGLTQR [YKRFEGLTQR, single-amino acid extended precursor of the HLA-B27 ligand KRFEGLTQR]
394

Where these numbers come from: paper PMC4039038
